System: A. baumannii ATCC BAA 1605
Format: cell-based, Acinetobacter baumannii
condition_description: ATCC BAA 1605, 18 h
Where a SMILES comes first, the peptide text is derived from it. [ ]: non-standard residue; d: D form. The star is where a group is joined. Lys(Me3) = C[N+](C)(C)CCCC[C@H](N)C(=O)O; Stearoyl = CCCCCCCCCCCCCCCCCC(=O)*; Palmitoyl = CCCCCCCCCCCCCCCC(=O)*; Myristoyl = CCCCCCCCCCCCCC(=O)*
readout_label: MIC (mg/L)

>>> result_number("CCCCCCCCCCCCCCCC(=O)N[C@@H](CCCCN)C(=O)N[C@@H](CCCCN)C(=O)N[C@@H](CCCCN)C(N)=O [Peptide 3P, C16-KKK-NH2]")
64
>>> result_number("CCCCCCCCCCCCCCCC(=O)N[C@@H](CCCCN)C(=O)N[C@@H](CCCCN)C(=O)N[C@@H](CCCCN)C(=O)N[C@@H](CCCCN)C(N)=O [Peptide 4P, C16-KKKK-NH2] (Palmitoyl-KKKK-NH2)")
64
>>> result_number("CCCCCCCCCCCCCCCCCC(=O)N[C@@H](CCCCN)C(=O)N[C@@H](CCCCN)C(N)=O [Peptide 2S, C18-KK-NH2]")
32
>>> result_number("CCCCCCCCCCCCCCCCCC(=O)N[C@@H](CCCC[N+](C)(C)C)C(=O)N[C@@H](CCCC[N+](C)(C)C)C(N)=O [Peptide 2Sq, C18-K(Me3)^+K(Me3)^+-NH2]")
64
>>> result_number("CCCCCCCCCCCCCCCCCC(=O)N[C@@H](CCCC[N+](C)(C)C)C(=O)N[C@@H](CCCC[N+](C)(C)C)C(=O)N[C@@H](CCCC[N+](C)(C)C)C(N)=O [Peptide 3Sq, C18-K(Me3)^+K(Me3)^+K(Me3)^+-NH2]")
128
>>> result_number("CCCCCCCCCCCCCC(=O)N[C@@H](CCCCN)C(=O)N[C@@H](CCCCN)C(=O)N[C@@H](CCCCN)C(=O)N[C@@H](CCCCN)C(N)=O [Peptide 4M, C14-KKKK-NH2] (Myristoyl-KKKK-NH2)")
512
>>> result_number("CCCCCCCCCCCCCCCCCC(=O)N[C@@H](CCCCN)C(=O)N[C@@H](CCCCN)C(=O)N[C@@H](CCCCN)C(=O)N[C@@H](CCCCN)C(N)=O [Peptide 4S, C18-KKKK-NH2] (Stearoyl-KKKK-NH2)")
16
>>> result_number("CCCCCCCCCCCCCC(=O)N[C@@H](CCCCN)C(=O)N[C@@H](CCCCN)C(N)=O [Peptide 2M, C14-KK-NH2]")
512
>>> result_number("CCCCCCCCCCCCCCCC(=O)N[C@@H](CCCC[N+](C)(C)C)C(N)=O [Peptide 1Pq, C16-K(Me3)^+-NH2]")
64
>>> result_number("CCCCCCCCCCCCCCCCCC(=O)N[C@@H](CCCC[N+](C)(C)C)C(=O)N[C@@H](CCCC[N+](C)(C)C)C(=O)N[C@@H](CCCC[N+](C)(C)C)C(=O)N[C@@H](CCCC[N+](C)(C)C)C(N)=O [Peptide 4Sq, C18-K(Me3)^+K(Me3)^+K(Me3)^+K(Me3)^+-NH2] (Stearoyl-[Lys(Me3)][Lys(Me3)][Lys(Me3)][Lys(Me3)]-NH2)")
256
>>> result_number("CCCCCCCCCCCCCCCCCC(=O)N[C@@H](CCCCN)C(=O)N[C@@H](CCCCN)C(=O)N[C@@H](CCCCN)C(N)=O [Peptide 3S, C18-KKK-NH2]")
32
>>> result_number("CCCCCCCCCCCCCCCC(=O)N[C@@H](CCCCN)C(=O)N[C@@H](CCCCN)C(N)=O [Peptide 2P, C16-KK-NH2]")
64
>>> result_number("CCCCCCCCCCCCCCCC(=O)N[C@@H](CCCC[N+](C)(C)C)C(=O)N[C@@H](CCCC[N+](C)(C)C)C(N)=O [Peptide 2Pq, C16-K(Me3)^+K(Me3)^+-NH2]")
128
